- experimental-system: rat TRPV1 (Rattus norvegicus (Rat), UniProt O35433)
- Sequence (O35433 whole entry): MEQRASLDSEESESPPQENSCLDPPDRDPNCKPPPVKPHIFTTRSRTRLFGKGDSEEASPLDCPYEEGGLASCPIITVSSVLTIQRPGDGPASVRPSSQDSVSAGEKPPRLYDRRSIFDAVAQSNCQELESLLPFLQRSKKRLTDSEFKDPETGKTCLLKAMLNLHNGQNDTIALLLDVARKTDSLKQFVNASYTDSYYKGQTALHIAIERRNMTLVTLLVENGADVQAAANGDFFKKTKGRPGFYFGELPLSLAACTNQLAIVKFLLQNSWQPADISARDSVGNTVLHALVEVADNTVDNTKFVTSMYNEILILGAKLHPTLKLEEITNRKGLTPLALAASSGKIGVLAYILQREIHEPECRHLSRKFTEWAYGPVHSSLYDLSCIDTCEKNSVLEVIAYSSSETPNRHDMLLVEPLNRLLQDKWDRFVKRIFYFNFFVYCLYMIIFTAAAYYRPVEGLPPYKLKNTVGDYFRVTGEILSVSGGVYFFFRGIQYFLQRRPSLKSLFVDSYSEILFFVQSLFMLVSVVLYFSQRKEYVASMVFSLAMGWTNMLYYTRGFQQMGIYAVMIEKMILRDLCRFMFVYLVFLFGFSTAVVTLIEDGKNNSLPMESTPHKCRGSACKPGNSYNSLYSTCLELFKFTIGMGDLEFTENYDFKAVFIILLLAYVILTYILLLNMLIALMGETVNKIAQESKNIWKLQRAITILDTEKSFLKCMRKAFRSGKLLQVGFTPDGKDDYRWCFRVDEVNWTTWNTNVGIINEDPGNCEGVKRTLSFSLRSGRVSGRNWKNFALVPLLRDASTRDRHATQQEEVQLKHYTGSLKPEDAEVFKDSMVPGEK
- particulars: read-out: Rat IC50
pIC50: −log10 of the molar value. Structures can show the parent of a compound that is named as a salt.
quantity-measured: pIC50

>  <compound>
FC1(F)CCN(c2nc3c(c(Nc4ccc(C(F)(F)F)cc4)n2)CCN(c2ncccc2C(F)(F)F)CC3)CC1 [Example 242]

>  <experimental-system>
rat TRPV1 (Rattus norvegicus (Rat), UniProt O35433)

>  <reported-result>
7.05

$$$$
>  <compound>
CN(C)c1nc2c(c(Nc3ccc(C(F)(F)F)cn3)n1)CCN(c1ncccc1C(F)(F)F)CC2 [Example 44]

>  <experimental-system>
rat TRPV1 (Rattus norvegicus (Rat), UniProt O35433)

>  <reported-result>
6.60

$$$$
>  <compound>
CN1CCCc2ccc(Nc3nc(OC4CCOC4)nc4c3CCN(c3ncccc3C(F)(F)F)CC4)cc21 (stereo not shown) [Example 323]

>  <experimental-system>
rat TRPV1 (Rattus norvegicus (Rat), UniProt O35433)

>  <reported-result>
6.17

$$$$
>  <compound>
FC(F)(F)c1ccc(Nc2nc(N3CCCCC3)nc3c2CCN(c2ncccc2C(F)(F)F)CC3)cc1Cl [Example 233, trifluoroacetic acid salt]

>  <experimental-system>
rat TRPV1 (Rattus norvegicus (Rat), UniProt O35433)

>  <reported-result>
6.77

$$$$
>  <compound>
O=S(=O)(c1ccc(Nc2nc(SC3CCCCC3)nc3c2CCN(c2ncccc2C(F)(F)F)CC3)cc1)C(F)(F)F [Example 360]

>  <experimental-system>
rat TRPV1 (Rattus norvegicus (Rat), UniProt O35433)

>  <reported-result>
6.60

$$$$
>  <compound>
CC(C)c1nc2c(c(Nc3ccc(C(F)(F)F)cc3)n1)CCN(c1ncccc1NS(C)(=O)=O)CC2 [Example 281]

>  <experimental-system>
rat TRPV1 (Rattus norvegicus (Rat), UniProt O35433)

>  <reported-result>
5.58

$$$$
>  <compound>
COCc1nc2c(c(Nc3ccc(C(F)(F)F)c(Cl)c3)n1)CCN(c1ncccc1C(F)(F)F)CC2 [Example 80B, trifluoroacetic acid salt]

>  <experimental-system>
rat TRPV1 (Rattus norvegicus (Rat), UniProt O35433)

>  <reported-result>
6.89

$$$$

###

- experimental-system: rat TRPV1 (Rattus norvegicus (Rat))
- particulars: read-out: Rat IC50
pIC50: −log10 of the molar value. Counter-ions that a name gives are not always drawn.
quantity-measured: pIC50

>  <compound>
CSc1nc2c(c(Nc3ccc(C(F)(F)F)cc3C)n1)CCN(c1ncccc1C(F)(F)F)CC2

>  <quantity-measured>
pIC50

>  <modifier>
=

>  <reported-result>
6.25

$$$$
>  <compound>
COCc1nc2c(c(Nc3ccc(C(C)(C)C)cc3)n1)CCN(c1ncccc1C(F)(F)F)CC2 [Example 67B, trifluoroacetic acid salt]

>  <quantity-measured>
pIC50

>  <modifier>
=

>  <reported-result>
7.47

$$$$
>  <compound>
CC(C)c1ccc(Nc2nc(C(C)C)nc3c2CCN(c2ncccc2C(F)(F)F)CC3)cc1

>  <quantity-measured>
pIC50

>  <modifier>
=

>  <reported-result>
7.22

$$$$
>  <compound>
CN1CCC(Oc2nc3c(c(Nc4ccc(C(F)(F)F)cc4)n2)CCN(c2ncccc2C(F)(F)F)CC3)CC1

>  <quantity-measured>
pIC50

>  <modifier>
<

>  <reported-result>
4.70

$$$$

###

- experimental-system: rat TRPV1 (Rattus norvegicus (Rat), UniProt O35433)
- particulars: read-out: Rat IC50
Where a name gives a salt, the structure may show the parent alone.
Classification by IC50 follows these ranges: low class = under 100 nM, middle class = from 100 nM up to 1000 nM, high class = 1000 nM and over

>  <compound>
COC(=O)C(C)(C)c1ccc(Nc2nc(N3CCOCC3)nc3c2CCN(c2ncccc2C(F)(F)F)CC3)cc1

>  <label-value>
middle class

$$$$
>  <compound>
CC(C)(C)c1ccc(Nc2nc(CN3CCCCC3)nc3c2CCN(c2ncccc2C(F)(F)F)CC3)cc1 [Example 66B, trifluoroacetic acid salt]

>  <label-value>
middle class

$$$$
>  <compound>
Cc1cc([N+](=O)[O-])cnc1N1CCc2nc(C(C)C)nc(Nc3ccc(C(F)(F)F)cc3)c2CC1

>  <label-value>
middle class

$$$$
>  <compound>
FC(F)(F)c1ccc(Nc2ncnc3c2CCN(c2ncccc2Cl)CC3)cc1

>  <label-value>
high class

$$$$
>  <compound>
CC(C)c1nc2c(c(Nc3ccc(C(F)(F)F)cc3)n1)CCN(c1ccccc1[N+](=O)[O-])CC2

>  <label-value>
high class

$$$$
>  <compound>
CC(C)c1nc2c(c(Nc3ccc(C(C)(C)C)cc3)n1)CCN(c1ncccc1N)CC2

>  <label-value>
middle class

$$$$
>  <compound>
CC(C)Sc1nc2c(c(Nc3ccc(S(=O)(=O)C(F)(F)F)cc3)n1)CCN(c1ncccc1C(F)(F)F)CC2

>  <label-value>
high class

$$$$
>  <compound>
CC(C)c1nc2c(c(Nc3ccc(C(C)(C)C)cc3)n1)CCN(c1ncccc1C(F)(F)F)CC2

>  <label-value>
low class

$$$$
>  <compound>
CN1CCN(c2nc3c(c(Nc4ccc(C(F)(F)F)c(Cl)c4)n2)CCN(c2ncccc2C(F)(F)F)CC3)CC1

>  <label-value>
middle class

$$$$
>  <compound>
COC[C@@H]1CCCN1c1nc2c(c(Nc3ccc(C(F)(F)F)cc3)n1)CCN(c1ncccc1C(F)(F)F)CC2 [Example 215, trifluoroacetic acid salt]

>  <label-value>
low class

$$$$
>  <compound>
FC(F)(F)c1ccc(Nc2nc(NC3CC3)nc3c2CCN(c2ncccc2C(F)(F)F)CC3)cc1 [Example 55B, trifluoroacetic acid salt]

>  <label-value>
middle class

$$$$
>  <compound>
Cc1cc(C(F)(F)F)ccc1Nc1nc(SC2CCOC2C)nc2c1CCN(c1ncccc1C(F)(F)F)CC2 (stereo not shown) [Example 368]

>  <label-value>
low class

$$$$
>  <compound>
CN(C)S(=O)(=O)c1ccc(Nc2nc(N3CCCCC3)nc3c2CCN(c2ncccc2C(F)(F)F)CC3)cc1

>  <label-value>
low class

$$$$
>  <compound>
CC(C)c1nc2c(c(Nc3ccc(C(F)(F)F)cc3F)n1)CCN(c1ncccc1C(F)(F)F)CC2

>  <label-value>
high class

$$$$
>  <compound>
FC(F)(F)c1ccc(Nc2nc(OC3CCOCC3)nc3c2CCN(c2ncccc2C(F)(F)F)CC3)cc1

>  <label-value>
middle class

$$$$
>  <compound>
CC(C)c1nc2c(c(Nc3ccc(N4CCCC4)cc3)n1)CCN(c1ncccc1C(F)(F)F)CC2

>  <label-value>
high class

$$$$
>  <compound>
Cc1cc(C(F)(F)F)ccc1Nc1nc(OC(C)C2CC2)nc2c1CCN(c1ncccc1C(F)(F)F)CC2 (stereo not shown)

>  <label-value>
middle class

$$$$
>  <compound>
CC(C)(C)c1ccc(Nc2nc(N3CCCCC3)nc3c2CCN(c2ncccc2C(F)(F)F)CC3)cc1[N+](=O)[O-]

>  <label-value>
low class

$$$$
>  <compound>
O=S(=O)(c1ccc(Nc2nc(OC3CCOCC3)nc3c2CCN(c2ncccc2C(F)(F)F)CC3)cc1)C(F)(F)F

>  <label-value>
low class

$$$$
>  <compound>
CN(C)c1nc2c(c(Nc3ccc(C(F)(F)F)c(Cl)c3)n1)CCN(c1ncccc1C(F)(F)F)CC2

>  <label-value>
low class

$$$$
>  <compound>
NC(=O)c1cccnc1N1CCc2ncnc(Nc3ccc(C(F)(F)F)cc3)c2CC1 [Example 294, trifluoroacetic acid salt]

>  <label-value>
high class

$$$$
>  <compound>
Nc1nc2c(c(Nc3ccc(C(F)(F)F)cc3)n1)CCN(c1ncccc1C(F)(F)F)CC2

>  <label-value>
high class

$$$$
>  <compound>
CN1CCN(c2nc3c(c(Nc4ccc(C(F)(F)F)nc4)n2)CCN(c2ncccc2C(F)(F)F)CC3)CC1

>  <label-value>
high class

$$$$
>  <compound>
COC(=O)C(C)(C)c1ccc(Nc2nc(C(C)C)nc3c2CCN(c2ncccc2C(F)(F)F)CC3)cc1

>  <label-value>
high class

$$$$
>  <compound>
CC(C)c1nc2c(c(Nc3ccc(C(F)(F)F)nc3)n1)CCN(c1ncccc1S(C)(=O)=O)CC2

>  <label-value>
middle class

$$$$
>  <compound>
O[C@@H]1CCCN(c2nc3c(c(Nc4ccc(C(F)(F)F)cc4)n2)CCN(c2ncccc2C(F)(F)F)CC3)C1 [Example 91B, trifluoroacetic acid salt]

>  <label-value>
middle class

$$$$
>  <compound>
FC(F)(F)c1ccc(Nc2nc(-c3ccncc3)nc3c2CCN(c2ncccc2C(F)(F)F)CC3)nc1 [Example 190, trifluoroacetic acid salt]

>  <label-value>
high class

$$$$
